- System: Huntingtin (HTT) transcripts
- experiment notes: Quantitative splicing assay (HTT), qPCR
- Format: cell-based
- condition context: Homo sapiens; GM04724 (CAG 70/20) Huntington's disease patient lymphoblasts, 24 h, qPCR HTTex49_50; read-out: HTT Potency - Splicing: E49-50 EC50 (average)
Could you please report measured EC50 for the items listed next?

C[C@]12CC[C@](C)(N1)[C@H](F)[C@H](Oc1ccc(-c3ccc(-c4cn[nH]c4)cc3O)nn1)C2 (single isomer, unassigned) ... 0.01 to 15 nM
C[C@@]12CCC[C@@](C)(N1)[C@@H](F)[C@@H](Oc1ccc(-c3ccc(-c4cn[nH]c4)cc3O)nn1)C2 (single isomer, unassigned) ... 0.01 to 15 nM
Oc1cc(-c2cn[nH]c2)ccc1-c1ccc(O[C@H]2C[C@@H]3CCC[C@@H](N3)[C@H]2F)nn1 (single isomer, unassigned) ... 0.01 to 15 nM
COc1cc(-c2ccc(-c3ccc(O[C@H]4C[C@@H]5CCC[C@@H](N5)[C@H]4F)nn3)c(O)c2)cnn1 (single isomer, unassigned) ... 0.01 to 15 nM

Each of the following entries comes with a recorded value; kindly state EC50 for each.
1. Cn1ccc(-c2cc(O)c(-c3ccc(O[C@@H]4C[C@H]5CCC[C@H](N5)[C@@H]4F)nn3)cc2F)cc1=O (single isomer, unassigned)
2. Cn1cc(-c2ccc(-c3ccc(O[C@@H]4C[C@@H]5CCC[C@@H](N5)[C@H]4F)nn3)c(O)c2)cn1 (single isomer, unassigned)
3. Cn1cc(-c2ccc(-c3ccc(O[C@H]4C[C@@H]5CCC[C@@H](N5)[C@@H]4F)nn3)c(O)c2)cn1 (single isomer, unassigned)
4. O=c1cc(-c2ccc(-c3ccc(O[C@H]4C[C@@H]5CCC[C@@H](N5)[C@H]4F)nn3)c(O)c2)cc[nH]1 (single isomer, unassigned)

Result:
1. 16 to 50 nM
2. 501 to 10000 nM
3. 16 to 50 nM
4. 101 to 500 nM

// for each compound below, give its EC50
1. Cn1cc(-c2ccc(-c3ccc(O[C@@H]4C[C@@]5(C)CC[C@](C)(N5)[C@@H]4F)nn3)c(O)c2)cn1 (single isomer, unassigned)
2. Oc1cc(-n2ccc(F)n2)ccc1-c1ccc(O[C@@H]2C[C@H]3CCC[C@H](N3)[C@@H]2F)nn1 (single isomer, unassigned)
3. COc1cc(-c2ccc(-c3ccc(O[C@@H]4C[C@@]5(C)CC[C@](C)(N5)[C@@H]4F)nn3)c(O)c2)cnn1 (single isomer, unassigned)
4. Cc1ccc(-c2ccc(-c3ccc(O[C@@H]4C[C@H]5CCC[C@H](N5)[C@@H]4F)nn3)c(O)c2)nn1 (single isomer, unassigned)

Result:
["16 to 50 nM", "0.01 to 15 nM", "16 to 50 nM", "501 to 10000 nM"]

====

- Tested on: MDR1-MDCK cell monolayers
- experiment notes: MDCK-MDR1 permeability assay (BBB penetration potential)
- Assay type: in vitro ADME
- condition context: dog, MDCK-MDR1, 120 min, 5 μM, pH 7.4
assay readout: MDCK-MDR1: % Recov A-B (%)
Give bare numbers, in %.

Cn1cc(-c2cc(O)c(-c3ccc(O[C@H]4C[C@@H]5CCC[C@@H](N5)[C@H]4F)nn3)c(F)c2)cn1 (single isomer, unassigned) ... 52

Give me MDCK-MDR1: % Recov A-B for each of these compounds, listed below.
1. Cn1ccc(-c2cc(O)c(-c3ccc(O[C@H]4C[C@@H]5CCC[C@@H](N5)[C@H]4F)nn3)cc2F)cc1=O (single isomer, unassigned)
2. Oc1cc(-c2nnco2)c(F)cc1-c1ccc(O[C@H]2C[C@@H]3CCC[C@@H](N3)[C@H]2F)nn1 (single isomer, unassigned)

Result:
1. 83
2. 81

====

- Test system: MDR1-MDCK cell monolayers
- experiment notes: MDCK-MDR1 permeability assay (BBB penetration potential)
- Assay type: in vitro ADME
- condition context: dog, MDCK-MDR1, 120 min, 5 μM, pH 7.4
assay readout: MDCK-MDR1: % Recov A-B (%)
Numbers only, in %.

Oc1cc2ccncc2cc1-c1ccc(O[C@@H]2C[C@H]3CCC[C@H](N3)[C@@H]2F)nn1 (single isomer, unassigned) [81-ENT1] ... 69
Oc1cc2cccnc2cc1-c1ccc(O[C@@H]2C[C@H]3CCC[C@H](N3)[C@@H]2F)nn1 (single isomer, unassigned) [105-ENT1] ... 92

Please look at the following compound next.
Problem: Recorded MDCK-MDR1: % Recov A-B of Oc1cc(-c2cn[nH]c2)ccc1-c1ccc(O[C@H]2C[C@@H]3CC[C@@H](N3)[C@H]2F)nn1 (single isomer, unassigned) [42-ENT1] , please.
Result: 75

====

- Tested on: mHTT protein
- experiment notes: mHTT protein assay (2B7-MW1, Mesoscale Discovery)
- Format: cell-based, human
- condition context: GM04724 (CAG 70/20) Huntington's disease patient lymphoblast cells, 48 hours, 2B7-MW1 MSD; read-out: HTT Potency - Protein EC50 mHTT (average)
pEC50: −log10 of the molar value.
assay readout: pEC50

Below, each entry is followed by its recorded pEC50 result.
Cn1cc(-c2ccc(-c3ccc(O[C@@H]4C[C@@H]5CCC[C@@H](N5)[C@H]4F)nn3)c(O)c2)cn1 (single isomer, unassigned) [121-ENT2] ... 5.00 to 6.30
Cc1cncc(-c2ccc(-c3ccc(O[C@@H]4C[C@H]5CCC[C@H](N5)[C@@H]4F)nn3)c(O)c2)c1 (single isomer, unassigned) [89-ENT1] ... 5.00 to 6.30
Cc1cc(-c2ccc(-c3ccc(O[C@@H]4C[C@H]5CCC[C@H](N5)[C@@H]4F)nn3)c(O)c2)co1 (single isomer, unassigned) [98-ENT1] ... 6.30 to 7.00
Oc1cc(-c2nnco2)ccc1-c1ccc(O[C@H]2C[C@@H]3CCC[C@@H](N3)[C@H]2F)nn1 (single isomer, unassigned) [117-ENT2] ... 7.30 to 7.80
Cc1ccc(-c2ccc(-c3ccc(O[C@@H]4C[C@H]5CCC[C@H](N5)[C@@H]4F)nn3)c(O)c2)nn1 (single isomer, unassigned) [75-ENT1] ... 5.00 to 6.30

Kindly review the next molecule as well.
Problem: Quick one: pEC50 of Cn1cc(-c2ccc(-c3ccc(O[C@H]4C[C@H]5CCC[C@H](N5)[C@H]4F)nn3)c(O)c2)cn1 (single isomer, unassigned) [122-ENT1] ?
Result: 5.00 to 6.30

====

For each of the compounds below, state its pEC50.
- System: mHTT protein
- experiment notes: mHTT protein assay (2B7-MW1, Mesoscale Discovery)
- Assay type: cell-based, human
- condition context: GM04724 (CAG 70/20) Huntington's disease patient lymphoblast cells, 48 hours, 2B7-MW1 MSD; read-out: HTT Potency - Protein EC50 mHTT (average)
- Description: Compounds are tested on GM04724 (CAG 70/20) Huntington's disease patient lymphoblast cells at doses ranging from 10 μM to 0.6 nM. 4,500 cells/well are seeded in 384 well plates. […] Compounds are incubated for 48 hours, mHTT protein levels are assessed by the 2B7-MW1 assay via Mesoscale Discovery (MSD) as previously reported (Macdonald et al., 2014). […] The viability readout is carried out by CTG according to the manufacturer's instructions.
pEC50: −log10 of the molar value.

Previously resolved entries follow.
O=c1cc(-c2ccc(-c3ccc(O[C@@H]4C[C@H]5CCC[C@H](N5)[C@@H]4F)nn3)c(O)c2)ccn1CF (single isomer, unassigned) ... 6.30 to 7.00
Cc1ncc(-c2ccc(-c3ccc(O[C@@H]4C[C@H]5CCC[C@H](N5)[C@@H]4F)nn3)c(O)c2)s1 (single isomer, unassigned) ... 7.30 to 7.80

Provide each entry's pEC50 from the list below.
1. Cc1ccc(-c2ccc(-c3ccc(O[C@H]4C[C@@H]5CCC[C@@H](N5)[C@H]4F)nn3)c(O)c2)s1 (single isomer, unassigned)
2. Oc1cc(-c2nnco2)ccc1-c1ccc(O[C@H]2C[C@@H]3CC[C@@H](N3)[C@H]2F)nn1 (single isomer, unassigned)
3. Cc1nnc(-c2ccc(-c3ccc(O[C@H]4C[C@@H]5CCC[C@@H](N5)[C@H]4F)nn3)c(O)c2)o1 (single isomer, unassigned)
4. Cn1cc(-c2cc(O)c(-c3ccc(O[C@@H]4C[C@H]5CCC[C@H](N5)[C@@H]4F)nn3)cc2Cl)cn1 (single isomer, unassigned)

Result:
["6.30 to 7.00", "6.30 to 7.00", "6.30 to 7.00", "7.30 to 7.80"]

====

- System: mHTT protein
- experiment notes: mHTT protein assay (2B7-MW1, Mesoscale Discovery)
- Type: cell-based, human
- condition context: GM04724 (CAG 70/20) Huntington's disease patient lymphoblast cells, 48 hours, 2B7-MW1 MSD; read-out: HTT Potency - Protein EC50 mHTT (average)
- Experimental: Compounds are tested on GM04724 (CAG 70/20) Huntington's disease patient lymphoblast cells at doses ranging from 10 μM to 0.6 nM. 4,500 cells/well are seeded in 384 well plates. […] Compounds are incubated for 48 hours, mHTT protein levels are assessed by the 2B7-MW1 assay via Mesoscale Discovery (MSD) as previously reported (Macdonald et al., 2014). […] The viability readout is carried out by CTG according to the manufacturer's instructions.
pEC50: −log10 of the molar value.
assay readout: pEC50

N#Cc1ccc(-c2ccc(O[C@H]3C[C@@H]4CCC[C@@H](N4)[C@H]3F)nn2)c(O)c1 (single isomer, unassigned) ... 5.00 to 6.30

Record pEC50 for all entries; do not skip any.
1. Oc1cc(-c2ccc3nccn3c2)ccc1-c1ccc(O[C@H]2C[C@@H]3CCC[C@@H](N3)[C@H]2F)nn1 (single isomer, unassigned)
2. Oc1cc(-c2cnccn2)ccc1-c1ccc(O[C@H]2C[C@@H]3CCC[C@@H](N3)[C@H]2F)nn1 (single isomer, unassigned)
3. Oc1cc(-n2ccnn2)ccc1-c1ccc(O[C@H]2C[C@@H]3CCC[C@@H](N3)[C@H]2F)nn1 (single isomer, unassigned)
4. Cn1cc(-c2cc(O)c(-c3ccc(O[C@H]4C[C@@H]5CCC[C@@H](N5)[C@H]4F)nn3)cn2)cn1 (single isomer, unassigned)

Result:
1: 7.30 to 7.80; 2: 6.30 to 7.00; 3: 6.30 to 7.00; 4: 5.00 to 6.30

Problem: Suppose we examine the compound Cn1ccc2cc(O)c(-c3ccc(O[C@@H]4C[C@H]5CC[C@H](N5)[C@@H]4F)nn3)cc2c1=O (single isomer, unassigned) ; what pEC50 value has been reported?
Result: 7.82 to 11.00

Hey, just so you know, these numbers are from patent US12522597B2.
